growth sensitivity score by entry:
test system: S. cerevisiae BY4741 (wild-type), vegetative growth in YPD; experiment: growth sensitivity score (doubling time z-score vs DMSO controls); higher = slower growth, strongly negative scores also mark growth inhibition (complete suppression), active = hit call of the paper
Structures can show the parent of a compound that is named as a salt.

>  <compound>
C[C@@H](c1ncncc1F)[C@](O)(Cn1cncn1)c1ccc(F)cc1F [Voriconazole] (stock concentration (mM, diluted 1:100): 9.9)

>  <growth sensitivity score>
43.3

$$$$
>  <compound>
CC(Oc1c(Cl)cccc1Cl)C1=NCCN1 (stereo not drawn) [Lofexidine hydrochloride] (stock concentration (mM, diluted 1:100): 10)

>  <growth sensitivity score>
0.09

$$$$
>  <compound>
CC(C)Oc1ccc2c(=O)c(-c3ccccc3)coc2c1 [Ipriflavone] (stock concentration (mM, diluted 1:100): 10)

>  <growth sensitivity score>
-0.15

$$$$
